Experiment: Clearance in rat at 2 mg/kg, iv
Format: ADME, organism-based
Design: dose 2 mg/kg, route intravenous
Conditions: in vivo
Measured parameter: clearance (mL/min/kg)
Supply the numeric figure in mL/min/kg, leaving out any unit text.

[in] Please give the documented clearance of CC(=O)N1CCC(c2cccnc2Oc2ccc(C(=O)c3nc4ccccc4[nH]3)cc2)CC1
[out] 50.5

[in] Please give the documented clearance of CC(=O)N1CCC(c2nccnc2Oc2ccc(C(=O)c3nc4ccccc4[nH]3)cc2)CC1
[out] 9

[in] Please give the documented clearance of O=C(c1ccc(Oc2nccnc2C2CCOCC2)cc1)c1nc2ccccc2[nH]1
[out] 10.3
